Recorded measurements of binding signal, one per entry
Target: d-enCas12a-Ultra (Acidaminococcus sp., UniProt U2UMQ6 1-1307, E174R;S542R;K548R;M537R;F870L;D908A;E993A;D1235A)
Assay: Spec-seq (native PAGE EMSA with sequencing of bound and unbound); 25 mM Tris-HCl pH 7.4, 150 mM KCl, 5 mM MgCl2, 10% glycerol, 1 mM DTT, 40 ng/uL salmon sperm DNA; 400 nM Cas12a, 480 nM crRNA, 50 nM library, 37 C 1 h; native PAGE at room temperature; high values mean tight binding;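 note: relative affinity from the bound to unbound sequence frequency ratio in Spec-seq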
Details: protein: recombinant

>  <binder>
ACTC (dsDNA) DNA 1: GCTATCTAGTGCTCAGTACGCACTGACTCAGGAAACTTCTGGCAGGACCAGGTCATGAGATCGGAAGAGCACACGTCTGAACTCCAGTCA DNA 2: TGACTGGAGTTCAGACGTGTGCTCTTCCGATCTCATGACCTGGTCCTGCCAGAAGTTTCCTGAGTCAGTGCGTACTGAGCACTAGATAGC RNA: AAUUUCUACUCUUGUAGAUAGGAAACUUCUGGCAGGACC

>  <unit-abbreviation>
lnKA

>  <binding signal>
-1.58

$$$$
>  <binder>
GCGA (dsDNA) DNA 1: GCTATCTAGTGCTCAGTACGCACTGGCGAAGGAAACTTCTGGCAGGACCAGGTCATGAGATCGGAAGAGCACACGTCTGAACTCCAGTCA DNA 2: TGACTGGAGTTCAGACGTGTGCTCTTCCGATCTCATGACCTGGTCCTGCCAGAAGTTTCCTTCGCCAGTGCGTACTGAGCACTAGATAGC RNA: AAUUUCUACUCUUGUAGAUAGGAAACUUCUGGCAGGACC

>  <unit-abbreviation>
lnKA

>  <binding signal>
-3.46

$$$$
>  <binder>
CGTC (dsDNA) DNA 1: GCTATCTAGTGCTCAGTACGCACTGCGTCAGGAAACTTCTGGCAGGACCAGGTCATGAGATCGGAAGAGCACACGTCTGAACTCCAGTCA DNA 2: TGACTGGAGTTCAGACGTGTGCTCTTCCGATCTCATGACCTGGTCCTGCCAGAAGTTTCCTGACGCAGTGCGTACTGAGCACTAGATAGC RNA: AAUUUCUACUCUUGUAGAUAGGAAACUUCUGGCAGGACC

>  <unit-abbreviation>
lnKA

>  <binding signal>
-0.615

$$$$
>  <binder>
TACC (dsDNA) DNA 1: GCTATCTAGTGCTCAGTACGCACTGTACCAGGAAACTTCTGGCAGGACCAGGTCATGAGATCGGAAGAGCACACGTCTGAACTCCAGTCA DNA 2: TGACTGGAGTTCAGACGTGTGCTCTTCCGATCTCATGACCTGGTCCTGCCAGAAGTTTCCTGGTACAGTGCGTACTGAGCACTAGATAGC RNA: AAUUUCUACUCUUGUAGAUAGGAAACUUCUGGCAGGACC

>  <unit-abbreviation>
lnKA

>  <binding signal>
-0.362

$$$$
>  <binder>
TATA (dsDNA) DNA 1: GCTATCTAGTGCTCAGTACGCACTGTATAAGGAAACTTCTGGCAGGACCAGGTCATGAGATCGGAAGAGCACACGTCTGAACTCCAGTCA DNA 2: TGACTGGAGTTCAGACGTGTGCTCTTCCGATCTCATGACCTGGTCCTGCCAGAAGTTTCCTTATACAGTGCGTACTGAGCACTAGATAGC RNA: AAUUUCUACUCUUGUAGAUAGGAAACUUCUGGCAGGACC

>  <unit-abbreviation>
lnKA

>  <binding signal>
-0.324

$$$$
>  <binder>
AGGA (dsDNA) DNA 1: GCTATCTAGTGCTCAGTACGCACTGAGGAAGGAAACTTCTGGCAGGACCAGGTCATGAGATCGGAAGAGCACACGTCTGAACTCCAGTCA DNA 2: TGACTGGAGTTCAGACGTGTGCTCTTCCGATCTCATGACCTGGTCCTGCCAGAAGTTTCCTTCCTCAGTGCGTACTGAGCACTAGATAGC RNA: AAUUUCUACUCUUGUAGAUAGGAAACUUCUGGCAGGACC

>  <unit-abbreviation>
lnKA

>  <binding signal>
-3.42

$$$$
>  <binder>
ACTT (dsDNA) DNA 1: GCTATCTAGTGCTCAGTACGCACTGACTTAGGAAACTTCTGGCAGGACCAGGTCATGAGATCGGAAGAGCACACGTCTGAACTCCAGTCA DNA 2: TGACTGGAGTTCAGACGTGTGCTCTTCCGATCTCATGACCTGGTCCTGCCAGAAGTTTCCTAAGTCAGTGCGTACTGAGCACTAGATAGC RNA: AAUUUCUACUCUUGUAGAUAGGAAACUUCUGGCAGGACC

>  <unit-abbreviation>
lnKA

>  <binding signal>
-3.19

$$$$
>  <binder>
TTAC (dsDNA) DNA 1: GCTATCTAGTGCTCAGTACGCACTGTTACAGGAAACTTCTGGCAGGACCAGGTCATGAGATCGGAAGAGCACACGTCTGAACTCCAGTCA DNA 2: TGACTGGAGTTCAGACGTGTGCTCTTCCGATCTCATGACCTGGTCCTGCCAGAAGTTTCCTGTAACAGTGCGTACTGAGCACTAGATAGC RNA: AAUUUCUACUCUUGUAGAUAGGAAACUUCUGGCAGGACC

>  <unit-abbreviation>
lnKA

>  <binding signal>
-0.507

$$$$
>  <binder>
TGTC (dsDNA) DNA 1: GCTATCTAGTGCTCAGTACGCACTGTGTCAGGAAACTTCTGGCAGGACCAGGTCATGAGATCGGAAGAGCACACGTCTGAACTCCAGTCA DNA 2: TGACTGGAGTTCAGACGTGTGCTCTTCCGATCTCATGACCTGGTCCTGCCAGAAGTTTCCTGACACAGTGCGTACTGAGCACTAGATAGC RNA: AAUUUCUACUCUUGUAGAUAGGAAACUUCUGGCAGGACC

>  <unit-abbreviation>
lnKA

>  <binding signal>
-0.323

$$$$
>  <binder>
ATTT (dsDNA) DNA 1: GCTATCTAGTGCTCAGTACGCACTGATTTAGGAAACTTCTGGCAGGACCAGGTCATGAGATCGGAAGAGCACACGTCTGAACTCCAGTCA DNA 2: TGACTGGAGTTCAGACGTGTGCTCTTCCGATCTCATGACCTGGTCCTGCCAGAAGTTTCCTAAATCAGTGCGTACTGAGCACTAGATAGC RNA: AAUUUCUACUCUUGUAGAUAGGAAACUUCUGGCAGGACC

>  <unit-abbreviation>
lnKA

>  <binding signal>
-0.548

$$$$
